System: Hs-578T
assay: NCI tumour cell line growth inhibition, 48 h
Active and inactive are the calls of the source. Cut-off read from the data, not from the text of the source: active = GI50 up to about 1.1 µM and inactive = higher.
Form field: GI50 (one value per entry).

compound	GI50
C[C@@H](C(=O)O)N1C(c2ccco2)=C(/C(C=O)=C\c2ccco2)C(=O)/C1=C\c1ccco1	> 100 µM (inactive)
N=C1NC(c2ccc(Cl)cc2)=CC(c2cccc(Cl)c2)S1 (stereo unspecified)	26.5 µM (inactive)
CC1=NN2C(=N)/C(=C/c3ccco3)C(=O)N=C2S1	> 100 µM (inactive)
CC1CCC2C(C)C(=O)OC2C2(C)C(=O)C=CC12 (stereo unspecified)	> 10 µM (inactive)
CCOP(=O)(C=C=C(C)C)OCC	> 100 µM (inactive)
O=C(NN=C(c1ccccc1)c1ccccc1)/C(O)=C/C(=O)c1ccc(Cl)cc1	27.2 µM (inactive)
C=CCSc1nc2ccccc2c(=O)n1Cc1ccco1	> 100 µM (inactive)
O=Nn1c2ccccc2c2ccccc21	46.2 µM (inactive)
O=c1cc(N2CCOCC2)[nH]c(=O)n1-c1ccc(F)cc1	> 100 µM (inactive)
CCOC(=O)c1cc([N+](=O)[O-])c(Sc2ncnc3nc[nH]c23)c([N+](=O)[O-])c1	9.64 µM (inactive)
O=C1C(c2ccccc2)=C(c2ccccc2)C1(Cl)Cl	3.56 µM (inactive)
CC(C)Oc1c(O)c2c3c(oc(=O)n3C=CC2c2ccccc2F)c1OC(C)C (stereo unspecified)	75.7 µM (inactive)
O=C(O)CNCCc1ccccc1	> 100 µM (inactive)
N=S(c1ccccc1[N+](=O)[O-])c1ccccc1[N+](=O)[O-]	4.68 µM (inactive)
Cc1ccc2occ/c(=N\Nc3ccccc3)c2c1	65.3 µM (inactive)
CC(C)(C)c1nc2c(o1)/C(=N\c1ccc(F)cc1)c1ccccc1C2=O	6.68 µM (inactive)
NC(=S)N/N=c1\cc(C(=O)Nc2ccc([N+](=O)[O-])cc2[N+](=O)[O-])oc2ccccc12	> 100 µM (inactive)
COC(=O)/C=C/c1ccc2c(c1)CCC2	> 100 µM (inactive)
C=CCN(C(=O)OC(C)(C)C)[C@H](C)C(=O)N[C@@H](C)C(=O)OC	> 100 µM (inactive)
COc1ccc(N2C(=O)c3cc(C)cnc3S2(=O)=O)cc1	> 100 µM (inactive)
CC(O)=NC(Cc1ccc2ccccc2c1)C(O)=NC(Cc1ccc(Cl)cc1)C(O)=NC(Cc1c[nH]c2ccccc12)C(O)=NC(CO)C(O)=NC(Cc1ccc(O)cc1)C(O)=NC(CCCN=C(N)N)C(O)=NC(CC(C)C)C(O)=NC(CCCN=C(N)N)C(=O)N1CCCC1C(O)=NC(C)C(=N)O (stereo unspecified)	47.4 µM (inactive)
O=C1OC(c2ccco2)=N/C1=C\c1ccc(Cl)c(Cl)c1	36.1 µM (inactive)
N#CC(Nc1ccccc1)c1ccc(C(C#N)Nc2ccccc2)cc1 (stereo unspecified)	> 100 µM (inactive)
CC1C=CN(N(C)C)C2=C1C(=O)c1cnccc1C2=O (stereo unspecified)	0.693 µM (active)
C/C(=N\O)C1CC2C=C(C#N)C1N(Cc1ccccc1)C2 (stereo unspecified)	> 100 µM (inactive)
Fc1ccc(Nc2nnc(-c3ccccn3)s2)cc1	> 100 µM (inactive)
O=C1Oc2cc(O)cc(/C=C/c3ccc(O)cc3)c2[C@@]12c1c(O)cc(O)cc1OC2c1cccc(O)c1 (stereo partly specified)	20.5 µM (inactive)
Cn1c2c(c3c(=O)[nH]ncc31)CCCc1ccccc1-2	20.9 µM (inactive)
COc1ccc(C[C@@H]2OC3(C=CC(=O)CC3Sc3ccccc3)O[C@H]2Cc2ccc(OC)cc2)cc1 (stereo partly specified)	1.41 µM (inactive)
CN(C)c1ccc(C(c2ccc(Cl)cc2)c2ccc(N(C)C)cc2)cc1	90.6 µM (inactive)
COC(=O)[C@@H](OC(C)=O)[C@@H](OC(C)=O)c1nnc2ccc(Cl)nn12	> 100 µM (inactive)
